Target of assay: T1, Rhesus CD137-Fc tagged protein (rhesus, UniProt H9Z8K9 24-186)
T1 construct: extracellular domain; The Octet paragraph gives no catalogue number; also called rhCD137-Fc
Experimental details: BLI (Octet RED384), CD137-Fc on Protein G sensor, 1:1 model
pKd: −log10 of the molar value.
Recorded metric: pKd

[[record]]
binder = "003BB172-E01-6 (VHH, Human VH single domain antibody, monovalent; also called CD137B) VHH: EVQLVESGGGLVQPGGSLRLSCAASGFTFSNYGMHWVRQAPGKGLEWVAVISNDGNTKTYADSVKGRFTISRDNSKNMLYLQMNSLRTEDTAVYYCAQDETTTVTASYYFDYWGQGTLVTVSS"
recorded_metric = "pKd"
measured_value = 7.41

[[record]]
binder = "003BB172-E01-5 (VHH, Human VH single domain antibody, monovalent) VHH: EVQLVESGGGLVQPGGSLRLSCAASGFTFSNYGMHWVRQAPGKRLEWVAVISNDGNTKTYADSVKGRFTISRDNSKNTLYLQMNSLRTEDTAVYYCAQDETTTVTASYYFDYWGQGTLVTVSS"
recorded_metric = "pKd"
measured_value = 7.94

[[record]]
binder = "003BB172-E01-3 (VHH, Human VH single domain antibody, monovalent) VHH: EVQLVESGGGLVQPGGSLRLSCAASGFTFSNYGMHWVRQAPGKRLEWVAVISNDGNTKTYADSVKGRFTISRDNSKNMLYLQMNSLRTEDTAVYYCAQDETTTVTASYYFDYWGQGTLVTVSS"
recorded_metric = "pKd"
measured_value = 7.61

[[record]]
binder = "003BB172-E01-7 (VHH, Human VH single domain antibody, monovalent; also called CD137C) VHH: EVQLVESGGGLVQPGGSLRLSCAASGFTFSNYGMHWVRQAPGKGLEWVAVISNDGNTKTYADSVKGRFTISRDNSKNTLYLQMNSLRTEDTAVYYCAQDETTTVTASYYFDYWGQGTLVTVSS"
recorded_metric = "pKd"
measured_value = 7.39

[[record]]
binder = "003BB172-E01-10 (VHH, Human VH single domain antibody, monovalent) VHH: EVQLVESGGGLVQPGRSLRLSCAASGFTFSNYGMHWVRQAPGKGLEWVAVISNDGNTKTYADSVKGRFTISRDNSKNTLYLQMNSLRTEDTAVYYCAQDETTTVTASYYFDYWGQGTLVTVSS"
recorded_metric = "pKd"
measured_value = 7.43

[[record]]
binder = "003BB172-E01-4 (VHH, Human VH single domain antibody, monovalent) VHH: EVQLVESGGGLVQPGGSLRLSCAASGFTFSNYGMHWVRQAPGKGLEWVAVISNDGNTKTYADSVKGRFTISRDNSKNTLYLQMTSLRTEDTAVYYCAQDETTTVTASYYFDYWGQGTLVTVSS"
recorded_metric = "pKd"
measured_value = 7.49

[[record]]
binder = "003BB172-E01-14 (VHH, Human VH single domain antibody, monovalent) VHH: EVQLVESGGGVVQPGRSLRLSCAASGFTFSNYGMHWVRQAPGKGLEWVAVISNDGNTKTYADSVKGRFTISRDNSKNTLYLQMNSLRAEDTAVYYCAQDETTTVTASYYFDYWGQGTLVTVSS"
recorded_metric = "pKd"
measured_value = 7.59

